Numbers sourced from PubChem BioAssay (NCI).

# Tested on: SF-268 CNS
# methodNotes: NCI tumour cell line growth inhibition, 48 h
Where a SMILES comes first, the peptide text is derived from it.
Attribute: TGI

molecule: O=C(O)C1(Cc2ccc3c(c2)CCC3)Cc2ccccc2C1
subjectOfTest: SF-268 CNS
TGI: > 100 µM
//
molecule: Nc1c(-c2ccccc2[N+](=O)[O-])nc2ccccn12
subjectOfTest: SF-268 CNS
TGI: > 100 µM
//
molecule: CCC(C)C1NC(=O)C2CCCN2C(=O)CNC(=O)C(C)NC(=O)C(Cc2ccccc2)NC(=O)C(C(C)C)NC1=O (centres undefined) (cyclo(GPIVFA); configuration not given here)
subjectOfTest: SF-268 CNS
TGI: > 100 µM

Okay, now this molecule:
Q) Return reported TGI; argument: CC(=O)C1=C(C)N(C)C2(O)C=CC(=O)C3=C(O)c4ccccc4C(=O)C312 (centres undefined)
A) 23.6 µM

----------
Catalogue of compounds with associated TGI
# System: SK-MEL-28 melanoma
# methodNotes: NCI tumour cell line growth inhibition, 48 h

Worked cases, answers included:
compound: Fc1cccc(Cl)c1C1SCc2nc3cc4ccccc4cc3n21 (stereo not given)
subjectOfTest: SK-MEL-28 melanoma
TGI: > 100 µM
//
compound: CC1=C(C(=O)Nc2ccc([N+](=O)[O-])cc2)C(c2ccc3c(c2)OCO3)C(C(=O)Nc2ccc([N+](=O)[O-])cc2)=C(C)N1
subjectOfTest: SK-MEL-28 melanoma
TGI: > 100 µM

Q) Need TGI, item `O=[N+]([O-])C(=C1Nc2ccccc2N1)/C(Cl)=C(/Cl)N1CCOCC1`
A) > 100 µM

----------
# Test system: A549 NSCLC
# methodNotes: NCI tumour cell line growth inhibition, 48 h
The entries below come with measured GI50 values attached.

smilesRecord: COc1cc(-c2n/c(=C\c3c(O)[nH]c4cc(Cl)ccc34)cc3c2=Nc2ccccc2-3)cc(OC)c1OC
GI50: 4.8 µM
//
smilesRecord: COc1ccc2c(Cl)cc(NC(=O)Nc3c(C)cccc3C)nc2c1
GI50: 6.1 µM

Kindly review the next compound as well.
Q) Recorded GI50 of `CN1CCN(c2nc(NCCCNc3ccnc4cc(Cl)ccc34)c3ccccc3n2)CC1` , please.
A) 5.01 µM

----------
# Test system: NCI-H522 lung
# methodNotes: NCI tumour cell line growth inhibition, 48 h
Let's look at some compounds and their measured TGI.

Q) Look at this compound and give its reported TGI. `O=C1NC(N2CCCCC2)=N/C1=C\c1ccccc1O`
A) > 100 µM

----------
Dear all, this message contains GI50 results, target or system U251 CNS.

compound: Cc1ccc(C(SCC(N)C(=O)O)(c2ccccc2)c2ccccc2)cc1 (stereo unspecified)
observationType: GI50
val: 0.042 µM
//
compound: CCCCNC(=O)c1cc(NCc2cc(O)ccc2O)ccc1O
observationType: GI50
val: 22.6 µM
//
compound: CCCNC(=O)c1ccc(Cl)cc1Cl
observationType: GI50
val: > 100 µM
//
compound: COCCN1CCN(Cc2ccc(-c3n[nH]c4c3C(=O)c3c(NC(=O)NN5CCOCC5)cccc3-4)cc2)CC1
observationType: GI50
val: 0.0204 µM
//
compound: C[n+]1c(-c2ccc(/C=N/NC(=O)c3ccc(C(=O)N/N=C/c4ccc(-c5cn6ccccc6[n+]5C)cc4)cc3)cc2)cn2ccccc21
observationType: GI50
val: 197 µM

Next:
Q) Request the reported GI50 associated with Cc1ccc(C2=C(c3ccc(C)cc3)C3(c4ccc(C)cc4)C4C(=O)c5ccccc5C(=O)C4C2(c2ccc(C)cc2)S3=O)cc1 (stereo unspecified)
A) 63 µM
